Attribution: patent US7211576B2

# target or system: human cyclin D1-CDK4 (Homo sapiens, UniProt P11802)
# Sequence (P11802 whole entry): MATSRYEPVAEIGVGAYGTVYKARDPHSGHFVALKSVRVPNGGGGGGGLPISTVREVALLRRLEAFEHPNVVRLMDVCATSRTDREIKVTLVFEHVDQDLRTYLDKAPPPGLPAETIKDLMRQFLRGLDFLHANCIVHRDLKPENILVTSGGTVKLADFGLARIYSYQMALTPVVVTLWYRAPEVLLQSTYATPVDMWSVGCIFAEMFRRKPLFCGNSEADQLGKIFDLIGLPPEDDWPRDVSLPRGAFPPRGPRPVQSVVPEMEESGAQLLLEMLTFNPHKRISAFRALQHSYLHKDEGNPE
# Sequence (P24385 whole entry partner): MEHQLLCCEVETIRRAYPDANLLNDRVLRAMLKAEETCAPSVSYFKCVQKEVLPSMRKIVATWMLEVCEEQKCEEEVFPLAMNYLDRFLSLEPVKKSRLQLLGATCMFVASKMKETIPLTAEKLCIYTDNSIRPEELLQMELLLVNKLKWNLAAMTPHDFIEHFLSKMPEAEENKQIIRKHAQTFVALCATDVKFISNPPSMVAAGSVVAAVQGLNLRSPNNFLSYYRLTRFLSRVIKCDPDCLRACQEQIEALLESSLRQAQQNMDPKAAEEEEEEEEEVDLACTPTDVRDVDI
# assay summary: FlashPlate kinase assay, cyclin D1-CDK4
# Format: biochemical
# condition notes: Rb protein substrate, 1 μM ATP, 33P-ATP, 30 minutes room temperature; read-out: CDK4 IC50
quantity kind: IC50 (nM)

Here are 2 compounds together with their reported answers.
| query smiles | quantity kind | measured value |
| --- | --- | --- |
| Nc1nc(Nc2ccc(N3CCC(N4CCCC4)CC3)cc2)sc1C(=O)c1cccc([N+](=O)[O-])c1 | IC50 | 7 |
| Nc1nc(Nc2ccc(N3CCC(N4CCOCC4)CC3)cc2)sc1C(=O)c1cccc(F)c1 | IC50 | 35 |

I. Nc1nc(Nc2ccc(N3CCC(N4CCCC4)CC3)cc2)sc1C(=O)c1ccc([N+](=O)[O-])cc1
II. CN(C)C1CCN(c2ccc(Nc3nc(N)c(C(=O)c4ccc5c(c4)OCCO5)s3)cc2)CC1
III. CN(C)C1CCN(c2ccc(Nc3nc(N)c(C(=O)c4cccc(O)c4)s3)cc2)CC1
IV. Nc1nc(Nc2ccc(N3CCC(N4CCCCC4)CC3)cc2)sc1C(=O)c1ccc([N+](=O)[O-])cc1
(Q) Falling order of IC50, please. Rank them, then answer with their labels in that order.
(A) IV, I, II, III
